Record form. Attribute: %Inh. Fill in for each entry.
tested on: ERK5; construct: gene MAPK7; details: concentration: 1 μM, replicates: in singlicate; n = 1;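 note: KINOMEscan kinase panel screen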
Numbers only; they are read as %.

Input line: Form field: reported %Inh of "O=C(CCO)NCCn1ccc2ncnc(Nc3ccc(Oc4cccc(C(F)(F)F)c4)c(Cl)c3)c21"
Output line: 5

Input line: Now consider "FC(F)(F)c1cc(Nc2nccc(-c3c(-c4ccc(Cl)cc4)nn4ncccc34)n2)ccc1Cl" .
Output line: 0

Input line: Now consider "FC(F)(F)c1ccc(-c2nn3ncccc3c2-c2ccnc(Nc3cccc(C(F)(F)F)c3)n2)cc1" .
Output line: 0

Input line: Now consider "Nc1nc(-c2ccccn2)c(-c2ccnc3ccccc23)s1" .
Output line: 4

Input line: Now consider "O=C(c1ccc(-c2cc(-c3c[nH]nc3-c3ccccn3)ccn2)cc1)N1CCCC1" .
Output line: 23

Input line: Now consider "O=c1cc(N2CCOCC2)nc2n(Cc3cccc(Cl)c3)ccn12" .
Output line: 0

Input line: Now consider "CC(C)(C)c1ccc(-n2cnc3c(N)ncnc32)cc1" .
Output line: 0

Input line: Now consider "COc1ccc(-c2oc3ncnc(N)c3c2-c2ccc(OC)cc2)cc1" .
Output line: 0

Input line: Now consider "Cc1ccc(NC(=O)c2cccc(C#N)c2)cc1-c1ccc(C(=O)Nc2ccncc2)cc1" .
Output line: 96.8

====

tested on: HIPK4; conditions: concentration: 1 μM, replicates: in singlicate; n = 1
measured property: %Inh (%)
Numbers only; they are read as %.

Input line: Checklist item: %Inh tested on HIPK4, entry COc1ccc(Nc2nccc(N3CCC(NC(=O)c4cccc(NC(C)=O)c4)C3)n2)cc1 (stereo not drawn) [GSK1379732] , value?
Output line: 0

Input line: Now consider CSc1ccc(NC2=C(c3ccccc3Cl)C(=O)NC2=O)cc1 [SB-342411] .
Output line: 0

Input line: Now consider Cn1cc(-c2ccc3c(c2)CCN3C(=O)Cc2cccc(C(F)(F)F)c2)c2c(N)ncnc21 [GSK2606414] .
Output line: 0

Input line: Now consider CC(=O)Nc1n[nH]c2ncc(-c3ccccc3)cc12 [SB-548492] .
Output line: 7

Input line: Now consider C[C@H]1CC[C@@H](C(=O)Nc2ccccc2)CN1c1cc(-c2ccc3c(N)n[nH]c3c2)nc(N)n1 [GSK2283293] .
Output line: 0

Input line: Now consider FC(F)(F)c1cc(Nc2nccc(-c3c(-c4ccc(Cl)cc4)nn4ncccc34)n2)ccc1Cl [GW829351] .
Output line: 0

====

tested on: MUSK; settings: concentration: 1 μM, replicates: in singlicate; n = 1
measured property: %Inh
Respond with the figure and its unit, in that order.

Input line: Checklist item: %Inh tested on MUSK, entry "N#Cc1ccc(Oc2ccc(Nc3ncnc4cc[nH]c34)cc2Cl)cc1" , value?
Output line: 6%

Input line: Now consider "Cn1ccc2ncnc(Nc3ccc(Oc4cccc(Cl)c4)c(Cl)c3)c21" .
Output line: 3%

Input line: Now consider COc1ccc(Nc2nccc(N3CCC(NC(=O)c4cccc(NC(C)=O)c4)C3)n2)cc1 (stereo not drawn) [GSK1379732] .
Output line: 0%

Input line: Now consider COc1ccc(Nc2nccc(N3CCC(NC(=O)Nc4ccc5c(c4)OCO5)C3)n2)cc1 (stereo not drawn) [GSK1379745] .
Output line: 17%

Input line: Now consider CS(=O)(=O)CCNCc1nc(-c2ccc3ncnc(Nc4ccc(OCc5cccc(F)c5)c(Cl)c4)c3c2)cs1.Cl [GW583340] .
Output line: 0%

Input line: Now consider Cl.c1ccc(Cn2ncc3cc(Nc4ncnc5ccccc45)ccc32)cc1 [GW273749] .
Output line: 0%
